Tested on: Pancreas_BxPC3
EXPERIMENTAL_PROTOCOL: Cell proliferation assay (ATPlite)
Type: cell-based
EXPERIMENTAL_CONTEXT: 72 hours, 0.5% fetal bovine serum

| COMPOUND_SMILES | ASSAY_TARGET | IC50 |
| --- | --- | --- |
| COc1cc2ncnc(Nc3ccc(F)c(Cl)c3)c2cc1OCCCCCCC(=O)NO | Pancreas_BxPC3 | 100 to 1000 nM |
| C#Cc1cccc(Nc2ncnc3cc(OC)c(NC(=O)CCCCCCC(=O)NO)cc23)c1 | Pancreas_BxPC3 | 1000 to 10000 nM |
| COc1cc2ncnc(NCc3ccccc3)c2cc1OCCCCCCC(=O)NO | Pancreas_BxPC3 | 100 to 1000 nM |
| COc1cc2ncnc(Nc3ccc(F)c(Cl)c3)c2cc1OCCOc1ccc(/C=C/C(=O)NO)cc1 | Pancreas_BxPC3 | 1000 to 10000 nM |
| C#Cc1cccc(Nc2ncnc3cc(OC)c(OCCCCCCC(=O)NO)cc23)c1 | Pancreas_BxPC3 | < 100 nM |
